B1: ATE1 (parent)
chain: DYFPSEDFYRCGYCKNESGSRSNG

# Variants of: B1
# protocol_summary: protein stability index of a GFP-peptide fusion (GPS, HEK-293T) (PSI 1-6); higher = more stable;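 note: lentivirally expressed fusions sorted by FACS into six bins by GFP to DsRed ratio, PSI derived from sequencing read proportions per bin multiplied by bin number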
# condition: c terminus: a fixed tail appended
Here the recorded protein stability index is given for each entry.
property_measured: protein stability index

INSERT INTO measurements (seq_text, quantitative_result) VALUES
  ('DYFPSEDFYRCGCCKNESGSRSNG [Y13C]', 2.18),
  ('DYFPSEDFDRCGYCKNESGSRSNG [Y9D]', 2.42),
  ('DYFPSEDFYRCGYCKNESLSRSNG [G19L]', 2),
  ('DYFPSEDFYRCGYCKNESGSRSFG [N23F]', 1.26),
  ('HYFPSEDFYRCGYCKNESGSRSNG [D1H]', 2.58),
  ('DYFPSEDFYRCGHCKNESGSRSNG [Y13H]', 3.21),
  ('DYFPSEDFYRCGYCKNESGSRCNG [S22C]', 2.17),
  ('DYFPSEDFYRCGYCDNESGSRSNG [K15D]', 2.74),
  ('DYFPSEDFYACGYCKNESGSRSNG [R10A]', 2.71),
  ('DYFPSEDFYRCGYFKNESGSRSNG [C14F]', 3.44),
  ('DYSPSEDFYRCGYCKNESGSRSNG [F3S]', 2.83),
  ('DYFPSEDFTRCGYCKNESGSRSNG [Y9T]', 2.98),
  ('DYFPSEDFIRCGYCKNESGSRSNG [Y9I]', 1.88),
  ('DNFPSEDFYRCGYCKNESGSRSNG [Y2N]', 2.36),
  ('DYFPSEDFYRCGYCKNPSGSRSNG [E17P]', 1.37),
  ('DYFPSENFYRCGYCKNESGSRSNG [D7N]', 2.28),
  ('DYFPSEDFYRCGYCKNESCSRSNG [G19C]', 1.93),
  ('DYFPSEDFERCGYCKNESGSRSNG [Y9E]', 2.43),
  ('DYFPSEDFYRCMYCKNESGSRSNG [G12M]', 2.77),
  ('DYFPSEDFYRVGYCKNESGSRSNG [C11V]', 3.73),
  ('DYFPSEDFYRCGYCKNESESRSNG [G19E]', 2.52),
  ('DYFPSEDFYRCGYCNNESGSRSNG [K15N]', 2.28),
  ('DYFPSEDFYRCGYCKNESGCRSNG [S20C]', 1.86),
  ('DYFPSEDFYRCGYCKNESGKRSNG [S20K]', 2.36),
  ('DYKPSEDFYRCGYCKNESGSRSNG [F3K]', 2.44),
  ('DYFPSEDFYRCGYCKNESGSRQNG [S22Q]', 2.6),
  ('DYFPSEDFYRRGYCKNESGSRSNG [C11R]', 3.9),
  ('DYFPSEDFSRCGYCKNESGSRSNG [Y9S]', 2.36),
  ('DYFPSEYFYRCGYCKNESGSRSNG [D7Y]', 2.85),
  ('DYFPSEDFYRCGYCKNEYGSRSNG [S18Y]', 1.69),
  ('DYFPSEDFYRCGYCKNESGSQSNG [R21Q]', 2.67),
  ('DYFPQEDFYRCGYCKNESGSRSNG [S5Q]', 2.41);
